Biological target: Nicotinamide phosphoribosyltransferase (Homo sapiens)
Sequence (P43490 whole entry): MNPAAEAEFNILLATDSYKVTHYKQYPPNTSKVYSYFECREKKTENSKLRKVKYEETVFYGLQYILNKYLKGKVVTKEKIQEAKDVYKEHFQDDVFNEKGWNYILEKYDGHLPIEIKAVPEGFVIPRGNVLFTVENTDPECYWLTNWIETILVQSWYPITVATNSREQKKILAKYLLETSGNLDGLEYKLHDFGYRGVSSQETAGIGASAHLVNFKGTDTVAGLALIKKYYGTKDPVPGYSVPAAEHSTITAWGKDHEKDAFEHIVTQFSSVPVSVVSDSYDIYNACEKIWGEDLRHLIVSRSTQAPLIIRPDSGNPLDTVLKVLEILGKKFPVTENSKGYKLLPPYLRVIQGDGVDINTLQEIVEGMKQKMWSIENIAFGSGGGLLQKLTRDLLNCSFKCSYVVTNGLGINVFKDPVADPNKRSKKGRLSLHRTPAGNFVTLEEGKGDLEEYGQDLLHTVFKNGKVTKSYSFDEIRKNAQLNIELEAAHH
Test: Inhibition of nicotinamide phosphoribosyltransferase-catalyzed conversion of nicotinamide to nicotinamide mononucleotide
pIC50: −log10 of the molar value.
measured_quantity: pIC50

Solved cases below.
# chemical_smiles, pIC50
rows = [
    ("C#CCN(Cc1cc2c(=O)n(C)c(C)nc2cc1Cl)c1ccc(C(=O)NCc2nc3ccccc3[nH]2)cc1", 7.40),
    ("Cc1[nH]c2nc(N)[nH]c(=O)c2c1Sc1ccc(C(=O)NCc2cccnc2)cc1", 5.55),
    ("C/C=C/CN(Cc1ccc2nc(C)n(C)c(=O)c2c1)c1ccc(C(=O)NCc2cccnc2)cc1", 8.54),
    ("CC(C)=CCN(Cc1cc2c(=O)n(C)c(C)nc2cc1Cl)c1ccc(C(=O)NCc2nc3ccccc3[nH]2)cc1", 7.60),
    ("C#CCN(Cc1ccc2nc(C)n(C)c(=O)c2c1)c1ccc(C(=O)NCc2ccc(Cl)cc2)cc1", 6.82),
]

A. C#CCN(Cc1ccc2nc(C)n(C)c(=O)c2c1)c1ccc(C(=O)NCc2ccc(F)cc2F)cc1
B. Cn1cnc2cc(Cl)c(NCc3ccc(C(=O)NCc4cccnc4)cc3)cc2c1=O
C. Cn1cnc2cc(Cl)c(C(=O)Nc3ccc(C(=O)NCc4cccnc4)cc3)cc2c1=O
D. Cc1nc2c(c(=O)[nH]1)CN(C(=O)c1ccc(C(=O)NCc3cccnc3)cc1)CC2
E. C/C=C/CN(Cc1ccccc1Cl)c1ccc(C(=O)NCc2cccnc2)cc1
Hey, quick one: sort these by pIC50, low to high? Submit the labels in the order that the ranking request calls for.
D, A, C, B, E
